Measured IC50, listed per entry.
target: AHAS protein comprising the W574L mutation (Arabidopsis thaliana, UniProt P17597, W574L); assay: biochemical
Sequence (P17597 56-670 W574L): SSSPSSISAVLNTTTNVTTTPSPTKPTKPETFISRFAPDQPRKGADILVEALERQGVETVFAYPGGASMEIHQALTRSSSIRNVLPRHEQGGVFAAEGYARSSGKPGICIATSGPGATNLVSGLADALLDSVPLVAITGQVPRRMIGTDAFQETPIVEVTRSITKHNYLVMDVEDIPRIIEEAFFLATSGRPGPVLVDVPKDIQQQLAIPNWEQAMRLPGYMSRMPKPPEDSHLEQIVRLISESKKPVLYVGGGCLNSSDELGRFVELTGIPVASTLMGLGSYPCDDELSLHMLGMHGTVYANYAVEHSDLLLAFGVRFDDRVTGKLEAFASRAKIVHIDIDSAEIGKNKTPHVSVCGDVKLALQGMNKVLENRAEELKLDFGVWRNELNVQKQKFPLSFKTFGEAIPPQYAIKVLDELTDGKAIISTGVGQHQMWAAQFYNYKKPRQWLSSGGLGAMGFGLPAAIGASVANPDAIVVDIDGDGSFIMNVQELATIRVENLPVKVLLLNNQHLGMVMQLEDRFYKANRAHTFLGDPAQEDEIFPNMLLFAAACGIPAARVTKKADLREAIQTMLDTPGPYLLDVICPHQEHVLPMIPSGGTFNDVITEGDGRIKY
Supply the numeric figure in µM, leaving out any unit text.

• COc1cc(OC)nc(NC(=O)NS(=O)(=O)c2cc(NC=O)ccc2C(=O)N(C)C)n1 = 50.1

Data point: "COc1cc(OC)nc(NC(=O)NS(=O)(=O)c2ncccc2C(F)(F)F)n1" ; IC50 = 3.16

----------
Target: AHAS protein comprising the W574L mutation (Arabidopsis thaliana, UniProt P17597, W574L)
Assay: biochemical
Experimental: Bacteria are grown at 37° C. in LB-medium containing 100 mg/l carbenicillin and 25 mg/l canamycin, induced with 1 mM isopropyl-β-D-thiogalactopyranoside at an OD600 of 0.6, cultivated for 16 hours at 18° C. and harvested by, e.g., centrifugation. Bacterial pellets are resuspended in 100 mM sodium phosphate buffer pH 7.0 containing 0.1 mM thiamine-pyrophosphate, 1 mM MgCl2, and 1 μM FAD at a concentration of 1 gram wet weight per 25 ml of buffer and disrupted by, e.g., sonification. […]
Endpoint: IC50

* COc1cc(OC)nc(Oc2cccc(Oc3nc(OC)cc(OC)n3)c2C(=O)O)n1 [Bispyribac-sodium, bispyribac-sodium] | 7.94 µM

IC50 reported for this compound "COc1cc(OC)nc(NC(=O)NS(=O)(=O)c2ncccc2C(=O)N(C)C)n1" : > 100 µM

Reported IC50 for "CCS(=O)(=O)c1cccnc1S(=O)(=O)NC(=O)Nc1nc(OC)cc(OC)n1" was 10 µM

Given item "COc1cc(OC)n2nc(S(=O)(=O)Nc3c(Cl)ccc(C)c3Cl)nc2n1" , the value recorded as its IC50 is 20 µM

Consider "COC(=O)c1sccc1S(=O)(=O)NC(=O)Nc1nc(C)nc(OC)n1" . Its measured IC50 is 63.1 µM

For "CCS(=O)(=O)c1nc2ccccn2c1S(=O)(=O)NC(=O)Nc1nc(OC)cc(OC)n1" the compound record lists IC50 as > 100 µM

----------
target: AHAS protein comprising the W574L mutation (Arabidopsis thaliana, UniProt P17597, W574L); test: biochemical; settings: AHAS W574L relative to WT
Friendly reminder: Resistance Factor W574L below 1000 is Fulfilled, at or above is Not fulfilled.

Solved entries (count: 10):
• CCS(=O)(=O)c1cccnc1S(=O)(=O)NC(=O)Nc1nc(OC)cc(OC)n1 = Fulfilled
• COC(=O)c1csc(C)c1S(=O)(=O)NC(=O)n1nc(OC)n(C)c1=O = Not fulfilled
• COC(=O)c1ccc(I)cc1S(=O)(=O)[N-]C(=O)Nc1nc(C)nc(OC)n1.[Na+] [Iodosulfuron-methy-sodium, iodosulfuron-methyl-sodium] = Fulfilled
• COc1cc(OC)nc(NC(=O)NS(=O)(=O)c2ncccc2C(F)(F)F)n1 = Not fulfilled
• CCS(=O)(=O)c1nc2ccccn2c1S(=O)(=O)NC(=O)Nc1nc(OC)cc(OC)n1 = Not fulfilled
• COc1cc(OC)n2nc(S(=O)(=O)Nc3c(Cl)ccc(C)c3Cl)nc2n1 = Not fulfilled
• COc1cc(OC)nc(NC(=O)NS(=O)(=O)c2cc(NC=O)ccc2C(=O)N(C)C)n1 = Not fulfilled
• COC(=O)c1ccc(CNS(C)(=O)=O)cc1S(=O)(=O)NC(=O)Nc1nc(OC)cc(OC)n1 = Not fulfilled
• COC(=O)c1ccccc1S(=O)(=O)NC(=O)Nc1nc(C)nc(OC)n1 = Fulfilled
• COc1cc(OC)n2nc(NS(=O)(=O)c3c(C(F)(F)F)ccnc3OC)nc2n1 = Not fulfilled

Consider the additional compound presented here.
Lookup: Field: below-cutoff. Rule: recorded Resistance Factor W574L strictly less than 1000. Subject: COc1cc(OC)nc(Oc2cccc(Oc3nc(OC)cc(OC)n3)c2C(=O)O)n1 [Bispyribac-sodium, bispyribac-sodium]
Found: Fulfilled

----------
Below: a set of entries, each annotated with reported Resistance Factor P197S.
Target: AHAS protein comprising the P197S mutation (Arabidopsis thaliana, UniProt P17597, P197S)
Sequence (P17597 56-670 P197S): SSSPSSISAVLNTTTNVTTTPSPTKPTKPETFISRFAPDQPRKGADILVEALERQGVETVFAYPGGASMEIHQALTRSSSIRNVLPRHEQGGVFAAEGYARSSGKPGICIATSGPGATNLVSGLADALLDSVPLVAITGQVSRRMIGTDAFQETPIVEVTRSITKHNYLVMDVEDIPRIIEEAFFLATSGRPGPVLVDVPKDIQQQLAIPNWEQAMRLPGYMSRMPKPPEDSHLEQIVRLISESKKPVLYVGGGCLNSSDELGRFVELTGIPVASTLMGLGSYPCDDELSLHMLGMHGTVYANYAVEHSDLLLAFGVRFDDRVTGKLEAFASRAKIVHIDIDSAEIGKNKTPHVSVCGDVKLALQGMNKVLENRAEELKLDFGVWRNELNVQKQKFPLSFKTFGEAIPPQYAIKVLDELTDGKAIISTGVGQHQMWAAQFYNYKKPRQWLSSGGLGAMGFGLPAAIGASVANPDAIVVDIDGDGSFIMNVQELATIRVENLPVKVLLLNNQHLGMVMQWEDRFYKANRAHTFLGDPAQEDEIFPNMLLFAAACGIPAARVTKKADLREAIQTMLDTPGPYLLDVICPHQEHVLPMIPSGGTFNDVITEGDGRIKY
Assay: biochemical
Conditions: AHAS P197S relative to WT
Experimental: Bacteria are grown at 37° C. in LB-medium containing 100 mg/l carbenicillin and 25 mg/l canamycin, induced with 1 mM isopropyl-β-D-thiogalactopyranoside at an OD600 of 0.6, cultivated for 16 hours at 18° C. and harvested by, e.g., centrifugation. Bacterial pellets are resuspended in 100 mM sodium phosphate buffer pH 7.0 containing 0.1 mM thiamine-pyrophosphate, 1 mM MgCl2, and 1 μM FAD at a concentration of 1 gram wet weight per 25 ml of buffer and disrupted by, e.g., sonification. […]
// no unit, no text: just the number

Take a look at these entries with their results.
• COc1cc(OC)n2nc(S(=O)(=O)Nc3c(Cl)ccc(C)c3Cl)nc2n1 = 457
• COC(=O)c1ccccc1S(=O)(=O)NC(=O)Nc1nc(C)nc(OC)n1 = 38
• COCc1cnc(C2=NC(C)(C(C)C)C(=O)N2)c(C(=O)O)c1 (stereo not shown) = 1

Value of measured Resistance Factor P197S for the entry COc1cc(OC)nc(Oc2cccc(Oc3nc(OC)cc(OC)n3)c2C(=O)O)n1 [Bispyribac-sodium, bispyribac-sodium] : 4

----------
target: AHAS protein comprising the P197S mutation (Arabidopsis thaliana, UniProt P17597, P197S); test: biochemical; conditions: AHAS P197S relative to WT
Measured Resistance Factor P197S, listed per entry for reference.
Just the number.

Look over these answered cases.
- COC(=O)c1sccc1S(=O)(=O)NC(=O)Nc1nc(C)nc(OC)n1: 200
- CCCOc1nn(C(=O)[N-]S(=O)(=O)c2ccccc2C(=O)OC)c(=O)n1C.[Na+]: 147
- CCS(=O)(=O)c1nc2ccccn2c1S(=O)(=O)NC(=O)Nc1nc(OC)cc(OC)n1: 1848
- COc1cc(OC)nc(NC(=O)NS(=O)(=O)c2ncccc2C(F)(F)F)n1: 120
- COC(=O)c1csc(C)c1S(=O)(=O)NC(=O)n1nc(OC)n(C)c1=O: 1173
- COC(=O)c1ccc(CNS(C)(=O)=O)cc1S(=O)(=O)NC(=O)Nc1nc(OC)cc(OC)n1: 65

Then there is this compound:
# Resistance Factor P197S (compound: "COc1cc(OC)n2nc(NS(=O)(=O)c3c(C(F)(F)F)ccnc3OC)nc2n1" ) is 261

----------
Listed next: entries and their corresponding pIC50.
target: mixture of two ALS proteins, one comprising the P197S and the other the W574L mutation (Arabidopsis thaliana, UniProt P17597, P197S/W574L); assay: biochemical
Sequence (P17597 56-670 P197S/W574L): as the sequence (P17597 56-670 W574L) above, with P142S counted along it
Please keep in mind that pIC50 is minus log10 of the molar concentration; only the number is needed.

Completed entries (count: 4):
* COc1cc(OC)nc(NC(=O)NS(=O)(=O)c2ncccc2C(=O)N(C)C)n1 | 4.50
* COCc1cnc(C2=NC(C)(C(C)C)C(=O)N2)c(C(=O)O)c1 (centres unmarked) | 4.10
* CCS(=O)(=O)c1cccnc1S(=O)(=O)NC(=O)Nc1nc(OC)cc(OC)n1 | 5.70
* COc1cc(OC)nc(Oc2cccc(Oc3nc(OC)cc(OC)n3)c2C(=O)O)n1 [Bispyribac-sodium, bispyribac-sodium] | 6.10

--- query ---
The value of pIC50 measured for the compound "COc1cc(OC)nc(NC(=O)NS(=O)(=O)c2ncccc2C(F)(F)F)n1" turned out to be 6.20

----------
molecular target: AHAS protein comprising the W574L mutation (Arabidopsis thaliana, UniProt P17597, W574L); test: biochemical; details: AHAS W574L relative to WT
Known Resistance Factor W574L of a selection of molecules

• COCc1cnc(C2=NC(C)(C(C)C)C(=O)N2)c(C(=O)O)c1 (stereo not drawn) = >22
• COc1cc(OC)nc(NC(=O)NS(=O)(=O)c2ncccc2C(=O)N(C)C)n1 = >607
• COc1ncc(F)c2nc(S(=O)(=O)Nc3c(F)cccc3F)nn12 = 1738

Documented Resistance Factor W574L of "CCCOc1nn(C(=O)[N-]S(=O)(=O)c2ccccc2C(=O)OC)c(=O)n1C.[Na+]" : 293

"COC(=O)c1sccc1S(=O)(=O)NC(=O)Nc1nc(C)nc(OC)n1" yielded Resistance Factor W574L of 1585

Note to self: Resistance Factor W574L recorded for "COc1cc(OC)nc(NC(=O)NS(=O)(=O)N(C)S(C)(=O)=O)n1" was >488
